Test system: Rattus norvegicus
METHOD_DESCRIPTION: Antiinflammatory activity in albino rat assessed as inhibition of carrageenan-induced paw edema at 30 mg/kg, ip administered 1 hr prior to carrageenan challenge measured 3 hrs after induction of inflammation relative to control
Assay type: functional
PROPERTY: inhibition in vivo at 30 mg/kg (%)
Enter your answer as a number in %; do not include the unit.

The cases that follow already have their inhibition in vivo at 30 mg/kg on record.
INSERT INTO results (compound, tested_system, property, recorded_result) VALUES
  ('O=c1sc2ccccc2n1CCCCCCN1CCN(CCCCCn2c(=O)sc3ccccc32)CC1', 'Rattus norvegicus', 'inhibition in vivo at 30 mg/kg', 34.7),
  ('c1ccc2sc(SCCCCN3CCN(CCCCSc4nc5ccccc5s4)CC3)nc2c1', 'Rattus norvegicus', 'inhibition in vivo at 30 mg/kg', 63.4),
  ('O=C(c1ccccc1)c1ccc2n1CCC2C(=O)O (centres undefined)', 'Rattus norvegicus', 'inhibition in vivo at 30 mg/kg', 75.4);

// next entry
Quick one: give measured inhibition in vivo at 30 mg/kg for O=c1sc2ccccc2n1CCCCCCN1CCN(CCCCCCn2c(=O)sc3ccccc32)CC1
39.3

* * *

System: Vero
METHOD_DESCRIPTION: Cytotoxicity against African green monkey Vero cells up to 25 ug/ml after 48 hrs by neutral red assay relative to control
Format: cell-based
EXPERIMENTAL_CONDITIONS: chlorocebus sabaeus
PROPERTY: Activity

INSERT INTO assay_data (structure, tested_system, recorded_result) VALUES
  ('O=c1sc2ccccc2n1CCN1CCN(CCn2c(=O)sc3ccccc32)CC1', 'Vero', 'Non-toxic'),
  ('O=c1oc2ccccc2n1CCCCN1CCN(CCCn2c(=O)oc3ccccc32)CC1', 'Vero', 'Non-toxic'),
  ('c1ccc2sc(SCCCCN3CCN(CCCCSc4nc5ccccc5s4)CC3)nc2c1', 'Vero', 'Non-toxic'),
  ('O=c1oc2ccccc2n1CCCCN1CCN(CCn2c(=O)oc3ccccc32)CC1', 'Vero', 'Non-toxic'),
  ('O=c1sc2ccccc2n1CCCCCCN1CCN(CCCCn2c(=O)sc3ccccc32)CC1', 'Vero', 'Non-toxic'),
  ('O=c1sc2ccccc2n1CCCCCN1CCN(CCCCn2c(=O)sc3ccccc32)CC1', 'Vero', 'Non-toxic');

Next up:
Provide only the value of recorded Activity for O=c1oc2ccccc2n1CCCCCCN1CCN(CCCCn2c(=O)oc3ccccc32)CC1
Non-toxic

* * *

System: SK-OV-3
METHOD_DESCRIPTION: Cytotoxicity against human SKOV3 cells up to 25 ug/ml after 48 hrs by neutral red assay relative to control
Format: cell-based
EXPERIMENTAL_CONDITIONS: sk-ov-3, 48 h
PROPERTY: Activity

Solved cases (4 shown):
INSERT INTO results (structure, recorded_result) VALUES
  ('O=c1sc2ccccc2n1CCCCCN1CCN(CCCCn2c(=O)sc3ccccc32)CC1', 'Non-toxic'),
  ('O=c1oc2ccccc2n1CCCCCN1CCN(CCn2c(=O)oc3ccccc32)CC1', 'Non-toxic'),
  ('O=c1oc2ccccc2n1CCN1CCN(CCn2c(=O)oc3ccccc32)CC1', 'Non-toxic'),
  ('O=c1sc2ccccc2n1CCCCCCN1CCN(CCn2c(=O)sc3ccccc32)CC1', 'Non-toxic');

Field: next compound
Please give measured Activity of the following entry: O=c1oc2ccccc2n1CCCCN1CCN(CCCn2c(=O)oc3ccccc32)CC1
Non-toxic
